# system-name: 12-LO (Homo sapiens, UniProt P18054)
# Construct: 12-HETE (12-LO product from platelets in PMNL preparations); endogenous in cells; host or cells: platelets contaminating human PMNL preparations
# Sequence (P18054 whole entry): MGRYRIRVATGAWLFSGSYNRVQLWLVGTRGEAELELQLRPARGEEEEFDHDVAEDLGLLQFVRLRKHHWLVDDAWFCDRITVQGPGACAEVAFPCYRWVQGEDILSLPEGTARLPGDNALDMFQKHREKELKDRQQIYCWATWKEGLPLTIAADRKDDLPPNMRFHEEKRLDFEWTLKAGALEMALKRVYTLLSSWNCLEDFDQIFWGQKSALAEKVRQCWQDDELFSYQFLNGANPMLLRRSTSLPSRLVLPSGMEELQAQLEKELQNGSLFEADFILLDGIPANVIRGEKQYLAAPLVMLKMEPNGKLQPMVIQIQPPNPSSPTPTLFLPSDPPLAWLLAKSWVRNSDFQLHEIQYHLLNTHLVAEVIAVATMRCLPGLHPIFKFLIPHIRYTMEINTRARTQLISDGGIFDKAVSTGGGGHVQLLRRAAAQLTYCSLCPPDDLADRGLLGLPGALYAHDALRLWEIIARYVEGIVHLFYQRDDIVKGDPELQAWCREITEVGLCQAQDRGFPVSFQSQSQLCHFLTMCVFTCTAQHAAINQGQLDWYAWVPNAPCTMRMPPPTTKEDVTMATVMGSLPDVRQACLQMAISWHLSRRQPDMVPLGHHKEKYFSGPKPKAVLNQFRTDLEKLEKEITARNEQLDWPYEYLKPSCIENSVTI
# protocol-summary: 12-LO product formation in A23187/AA-activated PMNL
# Format: cell-based
# test-settings: at 3 µM; mean ± s.e.m., n = 3; n.i. no inhibition
observed-property: 12-LO product formation/PMNL, residual activity

[[record]]
compound = "Cc1c(O)cc2c(c1C)O[C@](C)(CCC[C@H](C)CCC[C@H](C)CCCC(C)C)CC2"
observed_measurement = "n.i."

[[record]]
compound = "Cc1c(C)c2c(c(C)c1O)CC[C@@](C)(CCCC(C)CCCC(C)CCCC(C)CO)O2 (some centres unmarked)"
observed_measurement = "84.7 ± 4.7 % of control"

[[record]]
compound = "CC(C)=CCC/C(C)=C/CC/C(C)=C/CC[C@]1(C)CCc2c(C)c(O)c(C)c(C)c2O1"
observed_measurement = "88.9 ± 4.9 % of control"

[[record]]
compound = "C/C(=C\\CC/C(C)=C/CC/C(C)=C/CC[C@]1(C)CCc2c(C)c(O)cc(C)c2O1)CO"
observed_measurement = "57.8 ± 13.6 % of control"

[[record]]
compound = "Cc1c(O)cc2c(c1C)OC(C)(CCC(=O)O)CC2 (centres unmarked)"
observed_measurement = "89.9 ± 4.2 % of control"

[[record]]
compound = "CC(C)=CCC/C(C)=C/CC/C(C)=C/CC[C@]1(C)CCc2cc(O)c(C)c(C)c2O1"
observed_measurement = "70.8 ± 2.3 % of control"

[[record]]
compound = "Cc1c(C)c2c(c(C)c1O)CC[C@@](C)(CCC[C@H](C)CCC[C@H](C)CCCC(C)C)O2"
observed_measurement = "n.i."

[[record]]
compound = "C/C(=C\\CC/C(C)=C/CC[C@]1(C)CCc2c(C)c(O)cc(C)c2O1)CC/C=C(\\C)C(=O)O"
observed_measurement = "70.0 ± 14.1 % of control"


====

# protocol-summary: LCM concentrations in plasma and peritoneal exudate of mice with peritonitis (UPLC-MS/MS)
# Type: in vivo
# test-settings: CD-1, mouse, plasma, ip, 10 mg/kg i.p., 240 min post zymosan, read-out: α-T-13′-COOH (4a) concentration in plasma
observed-property: concentration at 240 min

[[record]]
molecule = "Cc1c(C)c2c(c(C)c1O)CC[C@@](C)(CCCC(C)CCCC(C)CCCC(C)C(=O)O)O2 (stereo partly shown) [4a]"
observed_measurement = "1400 nM"


====

# system-name: 5-LO (Homo sapiens, UniProt P09917)
# Sequence (P09917 whole entry): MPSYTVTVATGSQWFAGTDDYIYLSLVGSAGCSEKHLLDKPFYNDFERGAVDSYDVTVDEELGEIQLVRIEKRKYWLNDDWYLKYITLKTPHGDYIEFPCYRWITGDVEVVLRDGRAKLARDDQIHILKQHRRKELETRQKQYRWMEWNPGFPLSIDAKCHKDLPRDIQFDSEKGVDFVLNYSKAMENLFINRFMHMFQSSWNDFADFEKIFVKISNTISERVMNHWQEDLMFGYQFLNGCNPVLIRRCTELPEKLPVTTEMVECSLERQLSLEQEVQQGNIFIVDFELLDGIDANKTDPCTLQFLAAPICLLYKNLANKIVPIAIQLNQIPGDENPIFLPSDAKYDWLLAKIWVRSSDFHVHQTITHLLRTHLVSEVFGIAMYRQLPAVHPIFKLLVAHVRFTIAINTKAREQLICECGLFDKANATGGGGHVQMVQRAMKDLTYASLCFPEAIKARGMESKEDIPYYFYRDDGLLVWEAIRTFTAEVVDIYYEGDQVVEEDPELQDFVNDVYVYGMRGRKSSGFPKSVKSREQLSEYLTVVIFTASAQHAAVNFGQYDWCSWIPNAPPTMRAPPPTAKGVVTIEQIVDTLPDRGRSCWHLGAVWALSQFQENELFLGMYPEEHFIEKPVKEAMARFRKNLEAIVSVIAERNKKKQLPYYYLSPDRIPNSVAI
# protocol-summary: Activity of purified human recombinant 5-LO (cell-free)
# Format: biochemical
# Parameters: made in house; host or cells: E. coli Bl21 (DE3)
pIC50: −log10 of the molar value.
Measured pIC50 by item
observed-property: pIC50

[[record]]
molecule = "C/C(=C\\CC/C(C)=C/CC[C@]1(C)CCc2cc(O)c(C)c(C)c2O1)CCC=C(CO)CO"
observed_measurement = 6.96

[[record]]
molecule = "Cc1c(C)c2c(c(C)c1O)CC[C@@](C)(CCCC(C)CCCC(C)CCCC(C)C(=O)O)O2 (stereo partly shown)"
observed_measurement = 6.57

[[record]]
molecule = "C/C(=C\\CC/C(C)=C/CC[C@]1(C)CCc2cc(O)cc(C)c2O1)CCC=C(CO)CO"
observed_measurement = 6.82

[[record]]
molecule = "C/C(=C\\CC[C@]1(C)CCc2cc(O)cc(C)c2O1)CC/C=C(\\C)CCCC(C)C(=O)O (stereo partly shown)"
observed_measurement = 6.77


====

# system-name: UniProt:P09917
# protocol-summary: 5-LO product formation in activated PMNL
# Format: cell-based
# Parameters: Freshly isolated PMNL (1 × 10^7); endogenous in cells; host or cells: human PMNL freshly isolated from leukocyte concentrates
pIC50: −log10 of the molar value.
observed-property: pIC50

[[record]]
compound = "Cc1c(C)c2c(c(C)c1O)CC[C@@](C)(CCCC(C)CCCC(C)CCCC(C)C(=O)O)O2 (stereo partly shown)"
observed_property = "pIC50"
observed_measurement = 7.10


====

# system-name: 12-LO (Homo sapiens, UniProt P18054)
# Construct: 12-HETE (12-LO product from platelets in PMNL preparations); endogenous in cells; host or cells: platelets contaminating human PMNL preparations
# protocol-summary: 12-LO product formation in A23187/AA-activated PMNL
# Format: cell-based
# test-settings: at 3 µM; mean ± s.e.m., n = 3; n.i. no inhibition
observed-property: 12-LO product formation/PMNL, residual activity

[[record]]
compound = "Cc1cc(O)cc2c1O[C@](C)(CCC[C@H](C)CCC[C@H](C)CCCC(C)CO)CC2 (stereo partly drawn)"
observed_measurement = "84.8 ± 7.8 % of control"

[[record]]
compound = "Cc1cc(O)cc2c1OC(C)(CCC(=O)O)CC2 (stereo not drawn)"
observed_measurement = "n.i."

[[record]]
compound = "Cc1c(C)c2c(c(C)c1O)CCC(C)(CCCC(C)C(=O)O)O2 (stereo not drawn)"
observed_measurement = "56.7 ± 3.0 % of control"

[[record]]
compound = "C/C(=C\\CC/C(C)=C/CC/C(C)=C/CC[C@]1(C)CCc2cc(O)cc(C)c2O1)CO"
observed_measurement = "n.i."

[[record]]
compound = "Cc1c(C)c2c(c(C)c1O)CC[C@@](C)(CCCC(C)CCCC(C)CCCC(C)C(=O)O)O2 (stereo partly drawn)"
observed_measurement = "55.3 ± 1.7 % of control"

[[record]]
compound = "Cc1cc(O)c(C)c2c1O[C@](C)(CCC[C@H](C)CCC[C@H](C)CCCC(C)C)CC2"
observed_measurement = "n.i."

[[record]]
compound = "CC(C)=CCC/C(C)=C/CC/C(C)=C/CC[C@]1(C)CCc2c(C)c(O)cc(C)c2O1"
observed_measurement = "65.4 ± 6.1 % of control"

[[record]]
compound = "C/C(=C\\CC/C(C)=C/CC[C@]1(C)CCc2cc(O)cc(C)c2O1)CC/C=C(\\C)C(=O)O"
observed_measurement = "75.1 ± 12.1 % of control"

[[record]]
compound = "Cc1cc(O)cc2c1O[C@](C)(CCC[C@H](C)CCC[C@H](C)CCCC(C)C(=O)O)CC2 (stereo partly drawn)"
observed_measurement = "74.5 ± 5.9 % of control"


====

# protocol-summary: LCM concentrations in plasma and peritoneal exudate of mice with peritonitis (UPLC-MS/MS)
# Format: in vivo
# test-settings: CD-1, mouse, peritoneal exudate, endogenous, 30 min post zymosan injection, read-out: α-T-13′-COOH (4a) concentration in peritoneal exudate
observed-property: concentration at 30 min

[[record]]
compound = "Cc1c(C)c2c(c(C)c1O)CC[C@@](C)(CCCC(C)CCCC(C)CCCC(C)C(=O)O)O2 (stereo partly shown) [4a]"
observed_measurement = "≤ 200 nM"


====

Measured pIC50 by item
# system-name: 5-LO (Homo sapiens)
# protocol-summary: 5-LO product formation in activated PMNL
# Format: cell-based
# Set-up: Freshly isolated PMNL (1 × 10^7); endogenous in cells; host or cells: human PMNL freshly isolated from leukocyte concentrates
# test-settings: cell-based; mean ± s.e.m., n = 3; read-out: IC50, activated PMNL (5-LO)
# Excerpt: Human PMNL, monocytes, PBMC, and platelets were freshly isolated from leukocyte concentrates. The protocols for experiments with human blood and blood cells were approved by the ethical commission of the Friedrich-Schiller-University Jena. […] PMNL were recovered from the pellet after hypotonic lysis of erythrocytes. Platelets were obtained from the supernatant and washed with PBS pH 5.9/0.9% NaCl (1:1). […]
pIC50: −log10 of the molar value.
observed-property: pIC50

[[record]]
compound = "C/C(=C\\CC/C(C)=C/CC/C(C)=C/CC[C@]1(C)CCc2c(C)c(O)c(C)c(C)c2O1)CO [2e]"
system_name = "5-LO (Homo sapiens)"
observed_measurement = 6.57

[[record]]
compound = "Cc1c(C)c2c(c(C)c1O)CC[C@@](C)(CCC[C@H](C)CCC[C@H](C)CCCC(C)C)O2 [1a, α-tocopherol]"
system_name = "5-LO (Homo sapiens)"
observed_measurement = 3.09

[[record]]
compound = "Cc1cc(O)c(C)c2c1O[C@](C)(CCC[C@H](C)CCC[C@H](C)CCCC(C)C)CC2 [1b]"
system_name = "5-LO (Homo sapiens)"
observed_measurement = 4.24

[[record]]
compound = "CC(C)=CCC/C(C)=C/CC/C(C)=C/CC[C@]1(C)CCc2cc(O)c(C)c(C)c2O1 [1g]"
system_name = "5-LO (Homo sapiens)"
observed_measurement = 3.88

[[record]]
compound = "CC(C)=CCC/C(C)=C/CC/C(C)=C/CC[C@]1(C)CCc2cc(O)cc(C)c2O1 [1h]"
system_name = "5-LO (Homo sapiens)"
observed_measurement = 4.22

